Data origin: the supplement of paper PMC10567573

B1: CDC25B (parent)
chain: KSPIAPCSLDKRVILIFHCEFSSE

Variants of: B1
Experiment: protein stability index of a GFP-peptide fusion (GPS, HEK-293T) (PSI 1-6); higher = more stable;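 further: lentivirally expressed fusions sorted by FACS into six bins by GFP to DsRed ratio, PSI derived from sequencing read proportions per bin multiplied by bin number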
Conditions: c terminus: a fixed tail appended
Quantity name: protein stability index

> print(dat)
                    sequence.entry  observed.measurement
1   KSPIAPCSGDKRVILIFHCEFSSE [L9G]                  2.92
2  KSPIAPCSLDKLVILIFHCEFSSE [R12L]                  3.04
3  KSPIAPCSLDKRVILIFHCEFSVE [S23V]                  2.95
